The reported measurements were obtained from paper PMC5131575.

system name: Clathrin triskelions (bovine (purified from bovine brain), UniProt P49951 1-1675)
Sequence (P49951 whole entry): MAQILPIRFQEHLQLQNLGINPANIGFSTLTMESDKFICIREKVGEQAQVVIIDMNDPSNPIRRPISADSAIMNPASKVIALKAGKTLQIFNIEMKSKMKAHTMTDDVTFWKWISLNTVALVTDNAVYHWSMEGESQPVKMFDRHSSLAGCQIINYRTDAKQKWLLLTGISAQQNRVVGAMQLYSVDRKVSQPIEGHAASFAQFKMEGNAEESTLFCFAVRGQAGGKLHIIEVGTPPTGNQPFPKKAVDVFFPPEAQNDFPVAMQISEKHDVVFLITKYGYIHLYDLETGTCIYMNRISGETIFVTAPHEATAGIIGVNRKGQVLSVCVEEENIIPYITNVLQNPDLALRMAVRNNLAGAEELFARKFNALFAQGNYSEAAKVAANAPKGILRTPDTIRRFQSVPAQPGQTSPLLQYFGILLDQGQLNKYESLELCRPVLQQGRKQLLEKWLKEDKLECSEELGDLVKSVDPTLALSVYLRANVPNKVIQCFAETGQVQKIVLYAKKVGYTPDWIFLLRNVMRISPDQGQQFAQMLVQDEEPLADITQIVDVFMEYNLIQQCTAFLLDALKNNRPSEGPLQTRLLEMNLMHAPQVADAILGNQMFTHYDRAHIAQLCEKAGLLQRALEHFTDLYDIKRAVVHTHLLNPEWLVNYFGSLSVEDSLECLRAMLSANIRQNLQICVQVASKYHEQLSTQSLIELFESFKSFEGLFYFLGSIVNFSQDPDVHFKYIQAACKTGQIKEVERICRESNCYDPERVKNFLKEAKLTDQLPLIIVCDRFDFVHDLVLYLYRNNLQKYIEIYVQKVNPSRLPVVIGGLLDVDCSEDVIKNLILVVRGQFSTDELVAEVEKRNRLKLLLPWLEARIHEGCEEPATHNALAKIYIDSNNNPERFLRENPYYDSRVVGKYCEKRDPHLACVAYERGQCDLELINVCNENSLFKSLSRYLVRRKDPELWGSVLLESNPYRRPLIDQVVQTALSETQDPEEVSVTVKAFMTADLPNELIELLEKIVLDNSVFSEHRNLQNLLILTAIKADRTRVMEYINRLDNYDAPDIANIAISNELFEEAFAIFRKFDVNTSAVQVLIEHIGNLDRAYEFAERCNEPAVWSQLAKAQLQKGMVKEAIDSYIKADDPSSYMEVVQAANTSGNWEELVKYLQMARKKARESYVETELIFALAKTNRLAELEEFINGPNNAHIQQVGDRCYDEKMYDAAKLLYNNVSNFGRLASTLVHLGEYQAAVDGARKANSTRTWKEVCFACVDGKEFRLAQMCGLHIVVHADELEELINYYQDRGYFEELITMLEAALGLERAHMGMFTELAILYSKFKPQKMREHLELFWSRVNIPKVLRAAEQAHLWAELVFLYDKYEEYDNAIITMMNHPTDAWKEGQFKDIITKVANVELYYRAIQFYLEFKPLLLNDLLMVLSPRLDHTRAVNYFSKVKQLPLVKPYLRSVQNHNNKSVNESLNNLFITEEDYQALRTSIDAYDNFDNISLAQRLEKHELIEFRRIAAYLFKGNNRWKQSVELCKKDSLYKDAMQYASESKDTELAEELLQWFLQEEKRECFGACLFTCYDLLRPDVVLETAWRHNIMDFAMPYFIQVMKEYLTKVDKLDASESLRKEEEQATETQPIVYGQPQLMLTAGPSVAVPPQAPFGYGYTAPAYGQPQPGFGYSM
assay procedure: SPR
pKd: −log10 of the molar value.

- binder: "PWDLW [GFP-Wbox]"
  pKd: 5.41
